molecules and their reported RP-LC retention time
test: gradient 5% acetonitrile 3 min, to 50% in 2 min, to 85% in 15 min, held 3 min, 100 µL/min; details: column: Zorbax Extend-C18 2.1 x 50 mm; eluents: water / acetonitrile, 0.1% formic acid
Property Name: RP-LC retention time (s)

1. CCOc1ccc2ncc(S(=O)(=O)c3ccc(Cl)cc3)c(N3CCN(C)CC3)c2c1    680
2. Cc1cc(Cl)ccc1S(=O)(=O)N1CCN(c2nc3ccncc3n(C)c2=O)CC1    615
3. COC(=O)c1cnc(N2CCN(c3ccc(F)cc3)CC2)c2ccccc12    1190
4. COc1ccc(C2CC(=O)N(c3ccc(F)c(C)c3)C(=O)C2)cc1    930
5. CCOC(=O)c1ccc(NC(=O)NC2CC(=O)N(C3CCCC3)C2)cc1 (centres undefined)    768
6. Cc1ccc(S(=O)(=O)N2CCCC2c2nc(-c3cccc(C(F)(F)F)c3)no2)cc1 (centres undefined)    1210
7. CN(Cc1ccccc1)C(=O)c1ccc(-c2cccs2)nc1    920
8. Cc1ccc(-n2c(N3CCCC(C(=O)Nc4ccccc4)C3)nc3ccsc3c2=O)cc1 (centres undefined)    966
9. CC(C)NC(=O)c1nsc(C(=O)N2CCN(c3ncccn3)CC2)c1N    764
